Catalogue of selectivity ratio readings, one per entry.
Assay: Selectivity index, ratio of IC50 for african green monkey (Cercopithecus aethiops) Vero cells to IC50 for chloroquine-resistant Plasmodium falciparum W2
Assay type: toxicity, cell-based
Conditions: read-out: Ratio IC50

>  <SMILES_STRUCTURE>
CC[C@@H](C)C(=O)O[C@H]1C(=O)O[C@@H]2C[C@H]3C(C)=CC(=O)[C@@H](O)[C@]3(C)[C@H]3[C@@H](O)[C@H](O)[C@]4(C)OC[C@]32[C@@H]14

>  <QUALIFYING_SIGN>
=

>  <selectivity ratio>
613

$$$$
>  <SMILES_STRUCTURE>
CC[C@@H](C)C(=O)O[C@H]1C(=O)O[C@@H]2C[C@H]3C(C)=CC(=O)[C@@H](O)[C@]3(C)[C@H]3[C@@H](OC(C)=O)[C@H](OC(C)=O)[C@]4(C)OC[C@]32[C@@H]14

>  <QUALIFYING_SIGN>
>

>  <selectivity ratio>
14

$$$$
>  <SMILES_STRUCTURE>
C[C@@H]1CC[C@H]2[C@@H](C)C(=O)O[C@@H]3O[C@@]4(C)CC[C@@H]1[C@]32OO4

>  <QUALIFYING_SIGN>
>

>  <selectivity ratio>
1180

$$$$
>  <SMILES_STRUCTURE>
CC[C@@H](C)C(=O)O[C@H]1C(=O)O[C@@H]2C[C@H]3C(C)=C[C@H](O)[C@@H](O)[C@]3(C)[C@H]3[C@@H](O)[C@@H](O)[C@]4(C)OC[C@]32[C@@H]14

>  <QUALIFYING_SIGN>
=

>  <selectivity ratio>
1180

$$$$
